testSystem: wild type HIV-1 protease (Human immunodeficiency virus type 1 group M subtype B)
Construct: over 45 of the 99 amino acids of the HIV protease monomer
methodSummary: Ki against wild type (WT) HIV-1 protease
Assay type: biochemical
conditionDetails: wild type HIV-1 protease
endpointLabel: Ki

Some entries whose results are on file:
CC(C)CN(CC(O)C(Cc1ccccc1)NC(=O)OC1COC2OCCC12)S(=O)(=O)c1ccc2onc(CNS(C)(=O)=O)c2c1 (stereo not shown); < 0.1 nM
CC(C)CN(CC(O)C(Cc1ccccc1)NC(=O)OC1COC2OCCC12)S(=O)(=O)c1ccc2onc(CNCCOc3ccccc3)c2c1 (stereo not shown); < 0.1 nM
CC(C)CN(CC(O)C(Cc1ccccc1)NC(=O)OC1COC2OCCC12)S(=O)(=O)c1ccc2onc(CNCCCN3CCCC3=O)c2c1 (stereo not shown); < 0.1 nM

response.value for CC(C)CN(CC(O)C(Cc1ccccc1)NC(=O)OC1COC2OCCC12)S(=O)(=O)c1ccc2onc(CNS(=O)(=O)C(C)C)c2c1 (stereo not shown) (field: Ki) = < 0.1 nM

response.value for CC(C)CN(CC(O)C(Cc1ccccc1)NC(=O)OC1COC2OCCC12)S(=O)(=O)c1ccc2onc(CNCC(F)(F)F)c2c1 (stereo not shown) (field: Ki) = < 0.1 nM

response.value for CC(C)CN(CC(O)C(Cc1ccccc1)NC(=O)OC1COC2OCCC12)S(=O)(=O)c1ccc2onc(COC(=O)C(C)C)c2c1 (stereo not shown) (field: Ki) = < 0.1 nM

response.value for CC(C)CN(CC(O)C(Cc1ccccc1)NC(=O)OC1COC2OCCC12)S(=O)(=O)c1ccc2onc(CN)c2c1 (stereo not shown) (field: Ki) = < 0.1 nM

response.value for CC(C)CN(CC(O)C(Cc1ccccc1)NC(=O)OC1COC2OCCC12)S(=O)(=O)c1ccc2onc(COC(=O)C(C)(C)C)c2c1 (stereo not shown) (field: Ki) = < 0.1 nM

response.value for CC(C)CN(CC(O)C(Cc1ccccc1)NC(=O)OC1COC2OCCC12)S(=O)(=O)c1ccc2onc(CNCc3ccccc3)c2c1 (stereo not shown) (field: Ki) = < 0.1 nM

response.value for CC(C)CN(CC(O)C(Cc1ccccc1)NC(=O)OC1COC2OCCC12)S(=O)(=O)c1ccc2onc(CNCC3CCCCC3)c2c1 (stereo not shown) (field: Ki) = < 0.1 nM

response.value for CCOC(=O)N(CCOC)Cc1noc2ccc(S(=O)(=O)N(CC(C)C)CC(O)C(Cc3ccccc3)NC(=O)OC3COC4OCCC34)cc12 (stereo not shown) (field: Ki) = < 0.1 nM

response.value for CC(C)CN(CC(O)C(Cc1ccccc1)NC(=O)OC1COC2OCCC12)S(=O)(=O)c1ccc2onc(CNCc3ccc4occc4c3)c2c1 (stereo not shown) (field: Ki) = < 0.1 nM

response.value for CC(C)CN(CC(O)C(Cc1ccccc1)NC(=O)OC1COC2OCCC12)S(=O)(=O)c1ccc2onc(CNC(=O)OC(C)C)c2c1 (stereo not shown) (field: Ki) = < 0.1 nM

Sourced from patent US20100056596A1
